# method: NCI Yeast Anticancer Drug Screen. Data for the sgs1 mgt1 strain (AID 161);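 also: 0% = growth of cultures given vehicle only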
# condition summary: S. cerevisiae sgs1 mgt1 strain, at 50.0 µM (retest, dose inferred, filed as 5.0)
Compounds without any hit were thinned out: in the full panel of roughly 79,000, 15% have a hit. The source made the active and inactive calls. Rule as the data show it: active = growth inhibition above about 70%; inactive = the rest.
Select the matching outcome among TRUE (active), FALSE (inactive)

Solved entries:
[
  {
    "molecule": "C[SH+]c1ccccc1N=Cc1ccccn1.C[SH+]c1ccccc1N=Cc1ccccn1.[Ni+2].[O-][Cl+3]([O-])([O-])[O-]",
    "assigned label": "FALSE"
  },
  {
    "molecule": "O=C(CBr)OC1CCCCC1",
    "assigned label": "TRUE"
  },
  {
    "molecule": "CCC[CH2][Sn]1([CH2]CCC)[O]C2C(O)OC(CO)C(O)C2[O]1 (stereo unspecified)",
    "assigned label": "TRUE"
  }
]

Ask | What is the recorded call for this molecule in the test? CC(=O)NC1C(O[C@H]2CC[C@@]3(C)C(CC[C@]4(C)C3CC=C3C5CC(C)(C)CC[C@]5(C(=O)O)CCC34C)C2(C)C)OC(CO)C(O)C1O (stereo partly specified)
Reply | TRUE

Ask | Item: "CC[n+]1c(/C=C/c2ccc(N(CCCl)CCCl)cc2)ccc2cc(Br)ccc21"
Reply | TRUE

Ask | Same question for "Cc1ccc(S(=O)(=O)N=S(=O)(CCCl)CCCl)cc1" please.
Reply | TRUE

====

# method: NCI Yeast Anticancer Drug Screen. Data for the sgs1 mgt1 strain (AID 161);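 also: 0% = growth of cultures given vehicle only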
# condition summary: S. cerevisiae sgs1 mgt1 strain, at 50.0 µM (retest, dose inferred, filed as 5.0), active compounds read high
The panel holds about 79,000 compounds, 15% with a hit somewhere; the sample as a whole holds those more often.
property label: growth inhibition (%)
Give a bare numeral; the unit % is implied.

These solved cases illustrate the format of a correct answer.
[
  {
    "compound": "C[CH2][Sn]([Br])([CH2]C)[c]1ccccc1CN(C)C",
    "growth inhibition / %": 77
  },
  {
    "compound": "O=C(CC(=O)c1ccccc1)c1ccccc1.O=C(CC(=O)c1ccccc1)c1ccccc1.O=C(CC(=O)c1ccccc1)c1ccccc1.[Al]",
    "growth inhibition / %": 2
  },
  {
    "compound": "COC1CCCC2OC3(OC)C(OC)CCCC3OC12OC (stereo not given)",
    "growth inhibition / %": -2
  },
  {
    "compound": "COc1c[c]([Hg][O]C(C)=O)c(OC)c(NC(=O)CC(C)=O)[c]1[Hg][O]C(C)=O",
    "growth inhibition / %": 93
  },
  {
    "compound": "CCC1CN1P(=O)(Oc1ccccc1)N1CC1CC (stereo not given)",
    "growth inhibition / %": 2
  },
  {
    "compound": "[Cl][Sn]([c]1ccccc1)([c]1ccccc1)[c]1ccccc1",
    "growth inhibition / %": 99
  },
  {
    "compound": "O=C([CH-]C(=O)c1ccccc1)c1ccccc1.O=C([CH-]C(=O)c1ccccc1)c1ccccc1.[CH2-]CCC.[CH2-]CCC.[Sn+4]",
    "growth inhibition / %": 58
  },
  {
    "compound": "N#CN(Cc1ccccc1)C(c1ccccc1)(c1ccccc1)c1ccccc1.[I][Sn]([c]1ccccc1)([c]1ccccc1)[c]1ccccc1",
    "growth inhibition / %": 98
  }
]

Ask | // query growth inhibition value for entry "O=C(N/N=C/c1cc(Br)cc(Br)c1[O-])c1ccccc1O.O=C(N/N=C/c1cc(Br)cc(Br)c1[O-])c1ccccc1O.[Zn+2]"
Reply | 98

Ask | Same again, this time with "c1ccc([As+](c2ccccc2)(c2ccccc2)c2cccc3ccccc23)cc1"
Reply | 100

Ask | Follow-up entry: "Oc1c(Cl)c(Cl)cc(Cl)c1Cc1c(Cl)cc(Cl)c(Cl)c1[O][Pb]([c]1ccccc1)([c]1ccccc1)[c]1ccccc1"
Reply | 89

====

# method: NCI Yeast Anticancer Drug Screen. Data for the mlh1 rad18 strain (AID 175)
# condition summary: S. cerevisiae mlh1 rad18 strain growth inhibition; at 50.0 µM; active compounds read high
This is part of a sample that, as a whole, favours compounds with a hit. Of some 79,000 tested, about 15% had one in any assay.
The molecules listed here are annotated with their growth inhibition.
Number only, in %; omit the unit.

[
  {
    "molecule": "C[CH2][Sn](=[O])[c]1ccccc1",
    "growth inhibition, %": -23.4
  },
  {
    "molecule": "O=P1(N(CCCl)CCCl)OC(c2ccccc2)=CCN1c1ccccc1 (stereo not given)",
    "growth inhibition, %": 34.6
  },
  {
    "molecule": "CC(=O)C1C(c2ccccc2)C2(C)OC(=O)C(C#N)C12C (stereo not given)",
    "growth inhibition, %": 33.2
  },
  {
    "molecule": "CSC(SC)=C1C(=O)NC(=O)NC1=O",
    "growth inhibition, %": -16.4
  }
]

Switching to the query record.
Ask | What value of measured growth inhibition is listed for "CNC(=O)Oc1cc(OC)ccc1C(=O)c1ccccc1" ?
Reply | 47

====

# method: NCI Yeast Anticancer Drug Screen. Data for the rad50 strain (AID 155);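 also: 0% = growth of vehicle-only cultures of the same strain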
# condition summary: S. cerevisiae rad50 strain growth inhibition; at 50.0 µM; active compounds read high
Compounds without any hit were thinned out: in the full panel of roughly 79,000, 15% have a hit. The source made the active and inactive calls. Cut-off read from the data, not from the text of the source: active = growth inhibition above about 70%; inactive = the rest.
Each entry below lists one item and its recorded growth inhibition value.

[
  {
    "molecule": "CCOP(=O)(OCC)C(C)(C)OC(=O)NC(F)(F)F",
    "property label": "growth inhibition",
    "val": "-18.7% (inactive)"
  },
  {
    "molecule": "CCOc1ccc(CCNC)c2c1ccc1ccc(OC)c(O)c12",
    "property label": "growth inhibition",
    "val": "97.3% (active)"
  },
  {
    "molecule": "Nc1ccc(C(=O)O)c(C(=O)O)c1",
    "property label": "growth inhibition",
    "val": "-10.5% (inactive)"
  },
  {
    "molecule": "Cc1cc[n+](C2C(=O)c3ccccc3C(=O)C2Nc2cc(Cl)ccc2Cl)cc1 (configuration not stated)",
    "property label": "growth inhibition",
    "val": "96.8% (active)"
  }
]

Ask | // returns reported growth inhibition for input "CCOP(=S)(OCC)N(C)C(=O)Oc1cccc(C(C)C)c1"
Reply | 0.95% (inactive)

Ask | Query CCC(CO)N=Cc1ccccc1O.CCC(CO)N=Cc1ccccc1O.[Ni] (configuration not stated) next
Reply | 40% (inactive)

====

# method: NCI Yeast Anticancer Drug Screen. Data for the mlh1 rad18 strain (AID 175)
# condition summary: S. cerevisiae mlh1 rad18 strain growth inhibition; at 50.0 µM
About 79,000 compounds went through this panel and 15% of them were active in at least one assay; those are over-represented in the sample as a whole. Active and inactive are the calls of the source. Cut-off read from the data, not from the text of the source: active = growth inhibition above about 70%; inactive = the rest.
Mark one answer only. Choices: label 1 (active), label 0 (inactive)

Worked cases, answers included:
[
  {
    "molecule": "CCOC(CNCc1cccnc1)OCC",
    "assigned label": "label 0"
  },
  {
    "molecule": "CC(C)NC1CC2CCCCC2CC1c1ccccc1 (stereo unspecified)",
    "assigned label": "label 1"
  },
  {
    "molecule": "N#CC(C#N)=Cc1ccc(Cl)o1",
    "assigned label": "label 1"
  }
]

Ask | How was "O=C(NC1CCCCC1)c1c(O)[nH]c(=S)[nH]c1=O" classified in this test?
Reply | label 0

Ask | Query "NNC(=O)c1ccc(O)cc1" next
Reply | label 0

Ask | Quick one: "NC(=O)c1cc([N+](=O)[O-])c(Cl)c([N+](=O)[O-])c1"
Reply | label 1

====

# method: NCI Yeast Anticancer Drug Screen. Data for the rad50 strain (AID 155);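 also: 0% = growth of vehicle-only cultures of the same strain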
# condition summary: S. cerevisiae rad50 strain growth inhibition; at 50.0 µM; active compounds read high
This is part of a sample that, as a whole, favours compounds with a hit. Of some 79,000 tested, about 15% had one in any assay.
property label: growth inhibition (%)
Write the value in % as a bare number.

[
  {
    "compound": "O=[N+]([O-])C(CO)CCC(CO)[N+](=O)[O-] (stereo not drawn)",
    "unit string": "%",
    "growth inhibition": -6.6
  },
  {
    "compound": "S=P(Nc1ccc(Cl)cc1)(Nc1ccc(Cl)cc1)c1ccccc1",
    "unit string": "%",
    "growth inhibition": 97.8
  }
]

Ask | Given the compound "CN(CCCl)Cc1ccc(OCc2ccccc2)c(OCc2ccccc2)c1" , what is its reported growth inhibition?
Reply | 99.7

Ask | For "CCCCCc1cc(/C=C2/N=C(c3ccc[nH]3)C=C2OC)[nH]c1C" then?
Reply | 83.9

Ask | Now try "C1CN([PH+](N2CC2)N2CC2)CCO1.C1CN([PH+](N2CC2)N2CC2)CCO1.[I][Pd][I]" .
Reply | 3.9

Ask | Field entry: "NC(=O)c1ccc(C(=O)Nc2ccc([As](=O)(O)O)cc2)cc1"
Reply | -3.85

Ask | Check "c1ccc(CN2CCNCC2)cc1" too.
Reply | -8.35

Ask | What do you have for "CC(=O)Oc1ccc([As](=O)(O)O)cc1" ?
Reply | 5.55
